Parameter Disease rate: see the listing below.
Tested on: Sphaerotheca cucurbitae
Experiment: Test on preventive effect against cucumber powdery mildew
Format: in vivo
Set-up: scale not given here
Settings: applied alone, 25 ppm
Description: Cucumber (cultivar: Suyo) was cultivated in a plastic pot having a diameter of 7.5 cm, and when it reached 1.5-leaf stage, 10 ml of a chemical solution having the compound of the present invention adjusted to a prescribed concentration, was applied by a spray gun. […] From 9 to 10 days after the inoculation, the area of sporulation was investigated, and the disease rate was determined in the same manner as in Test Example 1, and the results are shown in Tables 5 to 20. […]
property-label: Disease rate

>>> measured_result("CC(=O)Oc1c(C)c(C)nc2c(F)cc(C(C)(C)C)cc12")
59.0
>>> measured_result("S1SSSSSSS1")
68.6
>>> measured_result("O=C(Nc1ccccc1-c1ccc(Cl)cc1)c1cccnc1Cl")
25.8
>>> measured_result("COC(=O)NCc1cc(/C(C)=N/OCc2cccc(C)n2)ccc1Cl")
63.2
